Source of measurements: paper PMC3368261

Provide the recorded IC50 for the entries that follow.
system tested: PknB (Mycobacterium tuberculosis)
assay method text: PknB enzyme inhibition, in vitro phosphorylation of the substrate GarA
Format: biochemical
setup conditions: assay conditions described in Ref. [8] (Table 5: Ref. [10]); read-out: PknB IC50

Recorded IC50 of c1cncc(-c2nccc(Nc3cc(C4CC4)[nH]n3)n2)c1 [Compound 8g] , please.
202 nM

Reported IC50, compound c1ccc(-c2nc(Nc3cc(C4CC4)[nH]n3)cc(OCCN3CCCC3)n2)cc1 [Compound 11f] : ____
56 nM

Query: IC50; subject: Fc1ccc(-c2nc(Nc3cc[nH]n3)c3ccccc3n2)cc1 [Compound 5b]
453 nM

So what's the measured IC50 for this one? NC(=O)c1cccc(-c2nccc(Nc3cc(C4CC4)[nH]n3)n2)c1 [Compound 8b]
384 nM

Could you tell me which IC50 is on file for CN(C)CCNc1cc(Nc2cc(C3CC3)[nH]n2)nc(-c2ccccc2)n1 [Compound 11a] ?
88 nM

Look up IC50: Fc1ccc(-c2nccc(Nc3cc(C4CC4)[nH]n3)n2)cc1 [Compound 8a]
375 nM

Need IC50, item Clc1ccccc1CCNc1nccc(Nc2cc(C3CC3)[nH]n2)n1 [Compound 8l]
64 nM

Give the measured IC50 of CN1CCC(Nc2cc(Nc3cc(C4CC4)[nH]n3)nc(-c3ccccc3)n2)CC1 [Compound 11d] .
73 nM

Using the record for CN(C)[C@@H]1CCN(c2cc(Nc3ccccn3)nc(-c3cccc(C#N)c3)n2)C1 [Compound 16a] , report its IC50.
1990 nM

// query IC50 value for entry Cc1cc(Nc2nc(-c3ccc(F)cc3)nc3ccccc23)n[nH]1 [Compound 5c]
1160 nM

----------
system tested: UniProt:P9WI81
assay method text: PknB enzyme inhibition, in vitro phosphorylation of the substrate GarA
Format: biochemical
setup conditions: read-out: PknB IC50
So basically: is IC50 under 200 nM? Then label 1. Not under? Then label 0.

Here's an entry: N#Cc1cccc(-c2nccc(Nc3cc(C4CC4)[nH]n3)n2)c1 [Compound 8f] . Is its IC50 below 200 nM?
label 1

Please state whether IC50 is below 200 nM for c1ccc2c(Nc3cc(C4CC4)[nH]n3)nc(-c3ccncc3)nc2c1 [Compound 5a]
label 0

For CN(C)[C@@H]1CCN(c2cc(Nc3cc(C(F)(F)F)ccn3)nc(-c3cccc(C#N)c3)n2)C1 [Compound 16d] , is the recorded IC50 below the cut-off of 200 nM?
label 1

Dear colleague, could you confirm whether IC50 of c1ccc2c(Nc3cc(C4CC4)[nH]n3)nc(NC3CCCCC3)nc2c1 [Compound 5f] falls below 200 nM? Thanks.
label 1

Check if IC50 falls below 200 nM for c1cc(Nc2cc(C3CC3)[nH]n2)nc(NCC2CC2)n1 [Compound 8m] .
label 0

----------
system tested: PknB (Mycobacterium tuberculosis, UniProt P9WI81)
Sequence (P9WI81 whole entry): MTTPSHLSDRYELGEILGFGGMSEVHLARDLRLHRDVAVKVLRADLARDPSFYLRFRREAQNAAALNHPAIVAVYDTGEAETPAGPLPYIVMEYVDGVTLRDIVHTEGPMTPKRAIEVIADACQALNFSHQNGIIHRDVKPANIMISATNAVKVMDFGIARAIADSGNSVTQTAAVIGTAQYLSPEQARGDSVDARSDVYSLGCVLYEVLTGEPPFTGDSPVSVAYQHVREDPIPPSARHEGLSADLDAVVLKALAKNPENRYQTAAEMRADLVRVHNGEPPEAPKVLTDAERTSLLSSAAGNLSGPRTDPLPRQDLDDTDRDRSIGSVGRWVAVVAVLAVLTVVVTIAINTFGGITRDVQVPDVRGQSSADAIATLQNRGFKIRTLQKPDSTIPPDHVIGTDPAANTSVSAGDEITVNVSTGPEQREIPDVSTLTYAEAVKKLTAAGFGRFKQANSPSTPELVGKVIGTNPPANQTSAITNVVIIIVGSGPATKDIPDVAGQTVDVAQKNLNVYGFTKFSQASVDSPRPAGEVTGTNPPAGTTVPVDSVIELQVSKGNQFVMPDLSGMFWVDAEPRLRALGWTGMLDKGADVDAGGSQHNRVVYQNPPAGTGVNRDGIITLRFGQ
assay method text: PknB enzyme inhibition, in vitro phosphorylation of the substrate GarA
Type: biochemical
setup conditions: assay conditions described in Ref. [8] (Table 5: Ref. [10]); read-out: PknB IC50
Answer each item with its documented pIC50.
Scale note: pIC50 = -log10(concentration in M).

What is its pIC50 for PknB (Mycobacterium tuberculosis, UniProt P9WI81)? Entry: CS(=O)(=O)NCc1ccc(-c2nccc(Nc3cc(C4CC4)[nH]n3)n2)cc1
6.62

Record lookup: for PknB (Mycobacterium tuberculosis, UniProt P9WI81), what pIC50 belongs to c1cc(Nc2cc(C3CC3)[nH]n2)nc(NC2CCCC2)n1 ?
6.94

// lookup pIC50 | system=PknB (Mycobacterium tuberculosis, UniProt P9WI81) | key= c1ccc(-c2nc(Nc3cc(C4CC4)[nH]n3)c3ccccc3n2)cc1
6.36

Quick check: pIC50 on PknB (Mycobacterium tuberculosis, UniProt P9WI81), item CS(=O)(=O)c1cccc(-c2nccc(Nc3cc(C4CC4)[nH]n3)n2)c1 ?
7.07

Value wanted: pIC50 (PknB (Mycobacterium tuberculosis, UniProt P9WI81)) of entry CN(C)[C@@H]1CCN(c2cc(Nc3cc(Cl)ccn3)nc(-c3ccccc3)n2)C1 [Compound 16c]
6.75

What pIC50 appears in the records for this compound with PknB (Mycobacterium tuberculosis, UniProt P9WI81)? CN1CCC(CNc2cc(Nc3cc(C4CC4)[nH]n3)nc(-c3cccc(C#N)c3)n2)CC1 [Compound 15c]
7.64

Lab note: need pIC50 for CS(=O)(=O)Nc1cccc(-c2nccc(Nc3cc(C4CC4)[nH]n3)n2)c1 on PknB (Mycobacterium tuberculosis, UniProt P9WI81), anyone have it?
6.41

Form entry - test system: PknB (Mycobacterium tuberculosis, UniProt P9WI81); read-out: pIC50; compound: CC(C)CCNc1nccc(Nc2cc(C3CC3)[nH]n2)n1
6.45

Enter reported pIC50 observed with PknB (Mycobacterium tuberculosis, UniProt P9WI81) for CN1CCN(c2cc(Nc3cc(C4CC4)[nH]n3)nc(-c3ccccc3)n2)CC1 [Compound 11b]
6.92

----------
system tested: PknB (Mycobacterium tuberculosis, UniProt P9WI81)
assay method text: PknB enzyme inhibition, in vitro phosphorylation of the substrate GarA
Type: biochemical
setup conditions: read-out: PknB IC50
measurement type: pIC50
Reminder that pIC50 means the negative base-10 logarithm of the concentration expressed in mol/L.

Value lookup for pIC50; key = Fc1cccc(CCNc2nccc(Nc3cc(C4CC4)[nH]n3)n2)c1 [Compound 8k]
7.13

Bench note: what pIC50 did CN1CCC(CNc2cc(Nc3cc(C4CC4)[nH]n3)nc(-c3cccc(S(C)(=O)=O)c3)n2)CC1 [Compound 15d] show?
7.40

Entry CN1CCC(CNc2cc(Nc3cc(C4CC4)[nH]n3)nc(-c3ccccc3)n2)CC1 [Compound 11c] : reported pIC50 = ?
7.26
